Tgt: hGLP-1R (Homo sapiens, UniProt P43220)
Sequence (P43220 24-463): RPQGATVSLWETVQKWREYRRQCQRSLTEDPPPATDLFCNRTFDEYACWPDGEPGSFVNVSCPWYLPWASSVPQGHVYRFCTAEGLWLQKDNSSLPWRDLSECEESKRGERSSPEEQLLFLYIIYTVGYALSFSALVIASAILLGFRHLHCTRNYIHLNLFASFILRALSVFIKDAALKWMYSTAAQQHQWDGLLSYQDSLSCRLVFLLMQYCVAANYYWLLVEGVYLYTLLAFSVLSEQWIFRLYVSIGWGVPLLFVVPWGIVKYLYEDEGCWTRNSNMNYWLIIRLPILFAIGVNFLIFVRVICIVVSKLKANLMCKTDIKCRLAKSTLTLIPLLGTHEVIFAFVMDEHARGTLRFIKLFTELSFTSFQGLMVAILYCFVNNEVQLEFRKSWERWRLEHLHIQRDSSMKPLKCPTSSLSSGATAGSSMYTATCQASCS
Protocol: cell-based or functional assay
Property label: log10 of Relative cAMP EC50 (log10 of the value in pM)
A value of 2 here means Relative cAMP EC50 of 100 in pM, since values are log10.

Solved cases below.
Binder: YXQGTFTSDXSQXLDXKAQXQFIQXLIEXGPSSGEPPPSGGGE (non-natural residues; lysine acylated with C18 diacid; C-terminal amide; synthetic construct; SITE 2: note = 2-Aminoisobutyric Acid; SITE 10: note = 3-(4-Pyridyl)-L-alanine; SITE 13: note = alpha-methyl-leucine; SITE 16: note = L-ornithine; SITE 17: note = Lysine is chemically modified through conjugation of the epsilon-amino group of the Lysine side chain with D-Glutami) [Example 1129]
log10 of Relative cAMP EC50: 2.70

Binder: YXQGTFTSDXSXXLDKKAQXAFIEYLIEXGESSGAPPPSGE (non-natural residues; Lys acylated C18 diacid; C-terminal amide; synthetic construct; SITE 2: note = 2-Aminoisobutyric Acid; SITE 10: note = 3-(4-Pyridyl)-L-alanine; SITE 12: note = L-ornithine; SITE 13: note = alpha-methyl-leucine; SITE 17: note = Lysine is chemically modified through conjugation of the epsilon-amino group of the Lysine side chain with (2-[2-(2-) [Example 222]
log10 of Relative cAMP EC50: 3.56

Binder: YXQGTXTSDXXIXLDXKAQXEFIEXLIEGGPSSGEPPPESE (non-natural residues; K acylated AEEA-γGlu-C18 diacid; C-amide; synthetic construct; SITE 2: note = 2-Aminoisobutyric Acid; SITE 6: note = alpha-methyl-2-fluoro-L-phenylalanine; SITE 10: note = 3-(4-Pyridyl)-L-alanine; SITE 11: note = alpha-methyl-L-serine; SITE 13: note = alpha-methyl-leucine; SITE 16: note = L-ornithine; SITE 17: note = Lysine is chemically mo) [Example 1147]
log10 of Relative cAMP EC50: 2.54

Binder: YXQGTXTSDYSIXLDKKAQXAFIEYLEEGGPSSGAPPPE (synthetic construct; SITE 2: note = 2-Aminoisobutyric Acid; SITE 6: note = alpha-methyl-L-phenylalanine; SITE 13: note = alpha-methyl-leucine; SITE 17: note = Lysine is chemically modified through conjugation of the epsilon-amino group of the Lysine side chain with (2-[2-(2-Amino-ethoxy)-ethoxy]-ace)) [Example 396]
log10 of Relative cAMP EC50: 2.47

Binder: YXQGTFTSDYSKXLDKKAQXAFIEYLLEGGESSGAPPPSGS (synthetic construct; SITE 2: note = 2-Aminoisobutyric Acid; SITE 13: note = alpha-methyl-leucine; SITE 17: note = Lysine is chemically modified through conjugation of the epsilon-amino group of the Lysine side chain with (2-[2-(2-Amino-ethoxy)-ethoxy]-acetyl)-(gamma-Glu)-CO-(CH2) 16-CO2H; SITE 20: n) [Example 358]
log10 of Relative cAMP EC50: 3.36

Next:
Q: Entry YXQGTXTSDXXIXLDXKAQXQFIEXLQEGGPSSGEPPPEGTE (synthetic construct; SITE 2: note = 2-Aminoisobutyric Acid; SITE 6: note = alpha-methyl-2-fluoro-L-phenylalanine; SITE 10: note = 3-(4-Pyridyl)-L-alanine; SITE 11: note = alpha-methyl-L-serine; SITE 13: note = alpha-methyl-leucine; SITE 16: note = L-ornithine; SITE 17: note = Lysine is chemically mo) [Example 528] has what log10 of Relative cAMP EC50?
Result: 2.64
